Data credit: ChEMBL document CHEMBL5058577

tested on: Fibroblast; experiment: Multiplex assay against human fibroblast; assay type: toxicity, cell-based; settings: 12 h, 10 µM, compound concentration 10 uM, replicate 2
The following molecules are listed with their measured Population Apoptotic (%) values.
Form field: result (number plus unit)

Query: Population Apoptotic (%); subject: Cc1ccc(C(C)(O)c2nc3ccccc3s2)c(C)c1 (stereo not drawn)
22%

Query: Population Apoptotic (%); subject: `Oc1c(CN2CCN(c3ccccn3)CC2)cc(Cl)c2cccnc12`
33%

Query: Population Apoptotic (%); subject: Cc1ccccc1C(=O)Nc1ccc(C(=O)N2CCCC(N(C)C)c3ccccc32)cc1.Cl (stereo not drawn)
45%

Query: Population Apoptotic (%); subject: `COc1cc(NC(=O)CCN2CCC(OC(=O)Nc3ccccc3-c3ccccc3)CC2)c(Cl)cc1CNC[C@H](O)c1ccc(O)c2[nH]c(=O)ccc12`
41%

Query: Population Apoptotic (%); subject: `O=C(NCCO)c1cccc(-c2cc(Nc3ccc(OC(F)(F)F)cc3)ncn2)c1`
40%

====

test system: U2OS; experiment: Multiplex assay against U2OS; type: toxicity, cell-based; conditions: human, 24 h, 10 µM, compound concentration 10 uM, replicate 2
readout-kind: Population Normal (%)
Give the value in % but do not write % after it.

Cc1ccc(/C(=C\CN2CCCC2)c2ccccn2)cc1 ... 98

Find the measured Population Normal (%): item `CC(=O)O[C@H]1C(=O)[C@@]2(C)[C@H]([C@H](OC(=O)c3ccccc3)[C@]3(O)C[C@H](OC(=O)[C@H](O)[C@@H](NC(=O)c4ccccc4)c4ccccc4)C(C)=C1C3(C)C)[C@]1(OC(C)=O)CO[C@@H]1C[C@@H]2O` , target or system U2OS.
92

Find the measured Population Normal (%): item `CC(C)(C)c1ccc(S(=O)(=O)Nc2ccc(Cl)cc2C(=O)c2cc[n+]([O-])cc2)cc1` , target or system U2OS.
98

Find the measured Population Normal (%): item `O=C(NCC(=O)N1CC[C@H](N[C@H]2CC[C@@](O)(c3ccc(-c4ncccn4)cn3)CC2)C1)c1cccc(C(F)(F)F)c1` , target or system U2OS.
99

====

The following molecules are listed with their measured Population Apoptotic (%) values.
tested on: Fibroblast; test: Multiplex assay against human fibroblast; assay type: toxicity, cell-based; conditions: 12 h, 10 µM, compound concentration 10 uM, replicate 2
Give the value in % but do not write % after it.

Field: example entries. Status: answers known.
O=C(O)Cc1ccccc1Nc1c(Cl)cccc1Cl ... 38
CC1(COc2ccc3c(c2)ncn3-c2ccc3cccc(N4CCC(N)CC4)c3n2)COC1 ... 34
O=C1COc2nccc(-c3ccccc3F)c2CN1Cc1cc(C(F)(F)F)cc(C(F)(F)F)c1 ... 37
CN1CCN2c3ncccc3Cc3ccccc3C2C1 (centres undefined) ... 28
CN1CCN(c2nc3cc(C(F)(F)F)ccc3n3cccc23)CC1.O=C(O)/C=C\C(=O)O.O=C(O)/C=C\C(=O)O ... 60
N[C@@]1(C(=O)O)CO[C@H]2[C@H](C(=O)O)[C@H]21 ... 21

Query: Population Apoptotic (%); subject: `CN(C)CCCc1cc(C(=O)Nc2ccc(-c3ccncc3)cc2)ccc1O.Cl.Cl`
48

Query: Population Apoptotic (%); subject: CSc1ccccc1N1CCN(CCCCCC(=O)NC2CCCc3ccccc32)CC1.Cl (centres undefined)
66

Query: Population Apoptotic (%); subject: `N#Cc1c(N)nc(SCc2csc(-c3ccc(Cl)cc3)n2)c(C#N)c1-c1ccc(OCCO)cc1`
41

====

tested on: U2OS; assay: Multiplex assay against U2OS; format: toxicity, cell-based; settings: human, 24 h, 10 µM, compound concentration 10 uM, replicate 1
readout-kind: Population Hoechst High Intensity Objects (%)
Give the value in % but do not write % after it.

Field: example entries. Status: answers known.
CCCC(CCC)C(=O)O [VALPROIC ACID] ... 2
CN(C)CCCc1cc(C(=O)Nc2ccc(-c3ccncc3)cc2)ccc1O.Cl.Cl ... 4
C[C@H]1[C@H]2CC[C@H]3[C@@H]4CC=C5C[C@@H](N(C)C)CC[C@]5(C)[C@H]4CC[C@]23CN1C [CONESSINE] ... 2
Cc1ccccc1C(=O)Nc1ccc(C(=O)N2CCCC(N(C)C)c3ccccc32)cc1.Cl (stereo not drawn) ... 4
Cc1ccc(C(C)(O)c2nc3ccccc3s2)c(C)c1 (stereo not drawn) ... 1

Attention now turns to another entry.
Query: Population Hoechst High Intensity Objects (%); subject: C[C@H](NC(=O)c1c(C(F)F)nn(C)c1Oc1cccc(C(F)(F)F)c1)c1ccc(C(=O)O)cc1 [PALUPIPRANT]
2

====

system: Fibroblast; experiment: Multiplex assay against human fibroblast; format: toxicity, cell-based; details: 24 h, 10 µM, compound concentration 10 uM, replicate 2
# strict inequality: Population Pyknosed Nuclei (%) < 20% yields yes, everything else yields no

COc1cc(C(=O)N(CCCc2ccccc2)Cc2ccc(CC(=O)O)cc2)cc(OC)c1C ... yes
CCCC(CCC)C(=O)O ... no
N#Cc1c(N)nc(SCc2csc(-c3ccc(Cl)cc3)n2)c(C#N)c1-c1ccc(OCCO)cc1 ... no
CCOc1c2c(c(OCC)c3ncccc13)CN(c1ccc(CS(=O)(=O)NC(=O)Cc3ccccc3OC)cc1C)C2=O ... no

# TODO verify Population Pyknosed Nuclei (%) < 20% strictly for this molecule: `Oc1c(CN2CCN(c3ccccn3)CC2)cc(Cl)c2cccnc12`
no

====

The following compounds are listed with their measured Population Normal (%) values.
system: HEK-293T; test: Multiplex assay against HEK293T; type: toxicity, cell-based; settings: human, 24 h, 1 µM, compound concentration 1 uM, replicate 1
Give the value in % but do not write % after it.

Field: example entries. Status: answers known.
N[C@@]1(C(=O)O)CO[C@H]2[C@H](C(=O)O)[C@H]21 ... 97
CC[C@H]1OC(=O)[C@H](C)[C@@H](O[C@H]2C[C@@](C)(OC)[C@@H](O)[C@H](C)O2)[C@H](C)[C@@H](O[C@@H]2O[C@H](C)C[C@H](N(C)C)[C@H]2O)[C@@]2(C)CC(C)=C(O2)[C@H](C)[C@@H](O)[C@]1(C)O ... 96
Cc1ccc(/C(=C\CN2CCCC2)c2ccccn2)cc1 ... 96

Attention now turns to another entry.
Query: Population Normal (%); subject: `CN(C)CCCc1cc(C(=O)Nc2ccc(-c3ccncc3)cc2)ccc1O.Cl.Cl`
94

====

The following compounds are listed with their measured Population Normal (%) values.
system: HEK-293T; experiment: Multiplex assay against HEK293T; type: toxicity, cell-based; conditions: human, 24 h, 1 µM, compound concentration 1 uM, replicate 1
Form field: result (number plus unit)

Query: Population Normal (%); subject: `CC(C)(C)c1ccc(S(=O)(=O)Nc2ccc(Cl)cc2C(=O)c2cc[n+]([O-])cc2)cc1`
93%

====

The following molecules are listed with their measured Population Mitotic Cells (%) values.
system: U2OS; assay: Multiplex assay against U2OS; type: toxicity, cell-based; settings: human, 12 h, 1 µM, compound concentration 1 uM, replicate 1
Give the value in % but do not write % after it.

Cc1ccc(C(C)(O)c2nc3ccccc3s2)c(C)c1 (configuration not stated) ... 13

Query: Population Mitotic Cells (%); subject: COc1ccc2c(c1)C(C(=O)N(Cc1ccc(N(C)C)cc1)c1ccc(C(C)C)cc1)CCC2.Cl (configuration not stated)
29

Query: Population Mitotic Cells (%); subject: CNC[C@H](O)c1ccc(O)c(O)c1 [EPINEPHRINE]
11

Query: Population Mitotic Cells (%); subject: `CCCn1c(=O)c2[nH]c(C3CCCC3)nc2n(CCC)c1=O`
12

Query: Population Mitotic Cells (%); subject: `N#Cc1c(N)nc(SCc2csc(-c3ccc(Cl)cc3)n2)c(C#N)c1-c1ccc(OCCO)cc1`
21

Query: Population Mitotic Cells (%); subject: `C[C@H](NC(=O)c1c(C(F)F)nn(C)c1Oc1cccc(C(F)(F)F)c1)c1ccc(C(=O)O)cc1`
39

Query: Population Mitotic Cells (%); subject: `O=C(O)c1cc2ccccc2c(Cc2c(O)c(C(=O)O)cc3ccccc23)c1O`
15

Query: Population Mitotic Cells (%); subject: `CN(C)c1ccnc2sc3c(=O)n(N4CCCCCC4)cnc3c12`
18

Query: Population Mitotic Cells (%); subject: `COc1cc(NC(=O)CCN2CCC(OC(=O)Nc3ccccc3-c3ccccc3)CC2)c(Cl)cc1CNC[C@H](O)c1ccc(O)c2[nH]c(=O)ccc12`
31

Query: Population Mitotic Cells (%); subject: CN1CCN2c3ncccc3Cc3ccccc3C2C1 (configuration not stated)
17

Query: Population Mitotic Cells (%); subject: `N[C@@]1(C(=O)O)CO[C@H]2[C@H](C(=O)O)[C@H]21`
14

Query: Population Mitotic Cells (%); subject: `Cc1ccc(F)cc1C(=O)Nc1ccc(C(=O)N2Cc3cccn3Cc3ccccc32)c(Cl)c1`
30
